Each entry below carries its reported IC50.
- TESTED ON: SARS-CoV-2 M^pro (Severe acute respiratory syndrome coronavirus 2)
- Assay type: biochemical
- MEASUREMENT PARAMETERS: read-out: SARS-CoV-2 M^pro IC50

C[C@H](NC(=O)[C@H](c1cccnc1)N(C(=O)C(Cl)Cl)c1ccc(-c2ccccc2)cc1)c1ccc(Br)cc1 [Jun9-90-3S] | > 20 µM

# input for lookup
**Query** What does the data say about its IC50? Entry: C[C@H](NC(=O)[C@H](c1cccnc1)N(C(=O)C(Cl)Cl)c1ccc(-c2ccccc2)cc1)c1ccccc1 [Jun9-62-2S]
**Result** > 20 µM

Provenance of the data: paper PMC8672434
